Values were extracted from ChEMBL document CHEMBL3507680.

# cytotoxicity at 70.5 h per record follows
test: Human HepG2 cell viability assay in 384 well format; format: toxicity, cell-based; parameters: dose 125 nL, time 70.5 hour; concentration not given beside the values; conditions: HepG2 cells, read-out: Inhibition

>  <compound>
CN1CCS(=O)(=O)[C@@H]2CCN(C(=O)CC(C)(C)C)CC[C@@H]21

>  <measurement.units>
%

>  <cytotoxicity at 70.5 h>
-3.84

$$$$
>  <compound>
CC(C)(C#N)C(=O)Nc1nccn1Cc1ccc(Br)cc1

>  <measurement.units>
%

>  <cytotoxicity at 70.5 h>
11.2

$$$$
>  <compound>
Cc1csc(C2CCCCN2C(=O)c2cnn3ccc(C)nc23)n1 (stereo unspecified)

>  <measurement.units>
%

>  <cytotoxicity at 70.5 h>
-18.6

$$$$
>  <compound>
Cc1ccc([C@H]2CN(CCO)C[C@@H]2NC(=O)CN2CCCCC2=O)o1

>  <measurement.units>
%

>  <cytotoxicity at 70.5 h>
-11

$$$$
>  <compound>
Cc1nc(C(C)C)sc1C(C)N(C)C(=O)c1ccc(=O)n(C)c1 (stereo unspecified)

>  <measurement.units>
%

>  <cytotoxicity at 70.5 h>
1.52

$$$$
>  <compound>
Cc1ncc(CN2CCC3(CC2)CC(=O)N(C)C3)cn1

>  <measurement.units>
%

>  <cytotoxicity at 70.5 h>
4.13

$$$$

###

assay: Human HepG2 cell viability assay in 384 well format; type: toxicity, cell-based; parameters: dose 125 nL, time 70.5 hour; concentration not given beside the values; conditions: HepG2 cells, read-out: Inhibition
property.name: cytotoxicity at 70.5 h (%)

>  <molecule>
CCn1nc(C)c(CCNC(=O)C2CCCN(C(C)=O)C2)c1C (centres undefined)

>  <recorded.measurement>
-8.81

$$$$
>  <molecule>
OCCOc1cc(F)ccc1NCc1cccc(F)c1F

>  <recorded.measurement>
1.35

$$$$
>  <molecule>
Cn1cc(C(C)(O)CNc2ccc(Cl)c(C#N)n2)cn1 (centres undefined)

>  <recorded.measurement>
5.37

$$$$
>  <molecule>
CN1CCC2(CC1)CN(C(=O)c1cccc3cccnc13)CCN2C

>  <recorded.measurement>
-8.6

$$$$
>  <molecule>
COCCN1C[C@@H]2[C@@H](OC)CCN(C(=O)Cc3ccccc3)[C@@H]2C1

>  <recorded.measurement>
-1.17

$$$$
>  <molecule>
CCN1CC(C)(C)CN(C(=O)CCc2ccccc2)CC1=O

>  <recorded.measurement>
-5.69

$$$$
>  <molecule>
CC(=O)N1CCCN(C(C(=O)O)c2ccc(C)cc2C)CC1 (centres undefined)

>  <recorded.measurement>
-10.9

$$$$
>  <molecule>
CC(=O)N1CCCC(c2ccc(N3CCN(C)CC3)cn2)C1 (centres undefined)

>  <recorded.measurement>
-3.54

$$$$
>  <molecule>
CC(=O)NCc1cc2n(n1)CCN(Cc1cc(-c3ccccc3)no1)C2

>  <recorded.measurement>
-18.6

$$$$
>  <molecule>
Cc1cc(F)cc2c(NCC(C)(C)C(N)=O)c(C#N)cnc12

>  <recorded.measurement>
11.6

$$$$
>  <molecule>
CC(C)c1nc2c(n1C)CCN(Cc1cccc(OCC(N)=O)c1)C2

>  <recorded.measurement>
0.112

$$$$
>  <molecule>
CCn1ccnc1CN1CCCN(C(=O)COC2CCCC2)CC1

>  <recorded.measurement>
22.5

$$$$
>  <molecule>
CCSc1ccc(C(C)NC(=O)CNS(C)(=O)=O)cc1 (centres undefined)

>  <recorded.measurement>
-7.13

$$$$
>  <molecule>
Cn1cnnc1CC1CCN(Cc2c(Cl)cncc2Cl)CC1

>  <recorded.measurement>
16.9

$$$$
>  <molecule>
O=C(Cc1c[nH]c(=O)[nH]c1=O)N1CCCCC1CCc1ccccc1 (centres undefined)

>  <recorded.measurement>
3.58

$$$$
>  <molecule>
CCc1cn[nH]c1C1CCN(C(=O)c2cc(C#N)c(=O)[nH]c2C)CC1

>  <recorded.measurement>
-3.13

$$$$
>  <molecule>
CCN(CC)S(=O)(=O)CCNc1ncnc2cc(F)c(F)cc12

>  <recorded.measurement>
-1.89

$$$$
>  <molecule>
CCc1cc(CNC(=O)C2CCCN(C(=O)NCC(C)C)C2)[nH]n1 (centres undefined)

>  <recorded.measurement>
-11.9

$$$$
>  <molecule>
CC(C)OCCN(C)C(C)c1cccc(S(N)(=O)=O)c1 (centres undefined)

>  <recorded.measurement>
22.5

$$$$
>  <molecule>
Cc1ccc(OC2(C(=O)O)CCN(C(=O)CCc3ccco3)CC2)cc1

>  <recorded.measurement>
-3.25

$$$$
>  <molecule>
CCOc1ccc(NC2CCN(C3CC3)C2=O)cn1 (centres undefined)

>  <recorded.measurement>
-1.16

$$$$
>  <molecule>
CCc1ocnc1C(=O)Nc1ccc2ccn(CCN(C)C)c2c1

>  <recorded.measurement>
-13.2

$$$$
>  <molecule>
CCOc1ccc(Cl)c(C(=O)N2CCCSCC2)n1

>  <recorded.measurement>
-10.6

$$$$
>  <molecule>
Cc1cc2c(cc1C(=O)N1CC[C@H](CO)[C@@H](O)C1)OCCO2

>  <recorded.measurement>
-7.62

$$$$

###

# cytotoxicity at 70.5 h per record follows
assay: Human HepG2 cell viability assay in 384 well format; type: toxicity, cell-based; design: dose 125 nL, time 70.5 hour; concentration not given beside the values; conditions: HepG2 cells, read-out: Inhibition
property.name: cytotoxicity at 70.5 h (%)

>  <compound>
COc1ncccc1CNC(=O)Nc1cc(C)nn1C

>  <recorded.measurement>
-7.29

$$$$
>  <compound>
COc1cc(CN2CC[C@H](NC(C)=O)[C@@H](O)CC2)ccc1F

>  <recorded.measurement>
12.1

$$$$
>  <compound>
COc1cccc(CN2CCN(c3noc(C(C)C)n3)CC2)c1F

>  <recorded.measurement>
1.87

$$$$
>  <compound>
Cc1nc(CN2CCN(c3cc(CCN)ncn3)CC2)cs1

>  <recorded.measurement>
-2.73

$$$$
>  <compound>
CCc1nc(C)c(CN2CCOC(CCCC(C)C)C2)[nH]1 (stereo unspecified)

>  <recorded.measurement>
27.1

$$$$
>  <compound>
CCC(=O)NC1CCCN(Cc2ccc(-n3ccnc3)cc2)C1 (stereo unspecified)

>  <recorded.measurement>
-4.83

$$$$

###

assay: Human HepG2 cell viability assay in 384 well format; assay type: toxicity, cell-based; parameters: dose 125 nL, time 70.5 hour; concentration not given beside the values; conditions: HepG2 cells, read-out: Inhibition
# cytotoxicity at 70.5 h per record follows

>  <compound>
O=C1CSc2ccccc2N1CC(=O)N1CCCCC1c1nccs1 (stereo unspecified)

>  <cytotoxicity at 70.5 h [%]>
-8.8

$$$$
>  <compound>
Cn1ccc2ccc(C(=O)Nc3nc[nH]n3)cc21

>  <cytotoxicity at 70.5 h [%]>
13.7

$$$$
>  <compound>
CC(=O)Nc1ncc(S(=O)(=O)Nc2ccc(F)cc2)s1

>  <cytotoxicity at 70.5 h [%]>
30.4

$$$$
>  <compound>
CCc1cccc(N2CCC(NC(=O)c3ccoc3C)CC2)c1

>  <cytotoxicity at 70.5 h [%]>
19.4

$$$$
>  <compound>
Cc1cc(F)c2c(c1)CCCN2Cc1nc2c(cnn2C)c(=O)[nH]1

>  <cytotoxicity at 70.5 h [%]>
-28.1

$$$$
>  <compound>
O=C(c1cccnc1O)N1CCCN(c2cccnn2)CC1

>  <cytotoxicity at 70.5 h [%]>
-9.98

$$$$
>  <compound>
COc1cccc(COCC(=O)N2CCCC(c3ccn[nH]3)C2)c1 (stereo unspecified)

>  <cytotoxicity at 70.5 h [%]>
20.5

$$$$
>  <compound>
Cc1cc2n(n1)CC(CNCc1ccccc1Cn1cccn1)CN2 (stereo unspecified)

>  <cytotoxicity at 70.5 h [%]>
4.35

$$$$
>  <compound>
Cn1c(CO[C@H]2CN(S(C)(=O)=O)C[C@H]2F)nc2ccccc21

>  <cytotoxicity at 70.5 h [%]>
-1.31

$$$$
>  <compound>
O=C(NC[C@]1(O)CN(Cc2ccccc2F)C[C@H]1O)c1ccccn1

>  <cytotoxicity at 70.5 h [%]>
-62.9

$$$$
>  <compound>
CSCCCNC(=O)C(c1ccccc1C)N(C)C (stereo unspecified)

>  <cytotoxicity at 70.5 h [%]>
-6.07

$$$$
>  <compound>
CN(C)C(=O)N1CCN(Cc2nnc(C(C)(C)C)o2)CC1

>  <cytotoxicity at 70.5 h [%]>
-4.6

$$$$
>  <compound>
Cc1ccc(F)cc1C(=O)N1C[C@@H](CN2CCOCC2)[C@@H](CO)C1

>  <cytotoxicity at 70.5 h [%]>
-6.59

$$$$
>  <compound>
CCOC1CCN(CC(=O)Nc2oc(C)c3c(C)n[nH]c(=O)c23)CC1

>  <cytotoxicity at 70.5 h [%]>
-4.42

$$$$
>  <compound>
Cc1cc(C)c(CNC(=O)NCCCNc2ccccn2)c(=O)[nH]1

>  <cytotoxicity at 70.5 h [%]>
6.35

$$$$
>  <compound>
O=C(C1CCOCC1)N1C[C@@H]2OCCN(CCN3CCCC3)[C@@H]2C1

>  <cytotoxicity at 70.5 h [%]>
-3.55

$$$$
>  <compound>
CC(C)(C)CC(=O)NC[C@H]1OC[C@@H](NCc2ccccn2)[C@@H]1O

>  <cytotoxicity at 70.5 h [%]>
-10.1

$$$$
>  <compound>
COCC(O)CNC(=O)c1coc(COc2cccc(F)c2)n1 (stereo unspecified)

>  <cytotoxicity at 70.5 h [%]>
-4.43

$$$$
>  <compound>
c1cc(CN2CCc3nc(N4CCOCC4)nc(NC4CC4)c3C2)co1

>  <cytotoxicity at 70.5 h [%]>
-10.6

$$$$
>  <compound>
O=C1C[C@H]2CC[C@@H](CN1)N2C(=O)CCc1ccccc1

>  <cytotoxicity at 70.5 h [%]>
-8.36

$$$$
>  <compound>
CCC(Oc1ccc(N(C)S(C)(=O)=O)cc1)C(N)=O (stereo unspecified)

>  <cytotoxicity at 70.5 h [%]>
-5.31

$$$$
>  <compound>
CC(C)(C)CN1CCCC(c2nccnc2Nc2cnccn2)C1 (stereo unspecified)

>  <cytotoxicity at 70.5 h [%]>
-12.3

$$$$
>  <compound>
Cc1cc(C)n(CCCN(CCN2CCOCC2)Cc2ccco2)n1

>  <cytotoxicity at 70.5 h [%]>
-4.4

$$$$
>  <compound>
Cc1cccc(C2CCCN2C(=O)CCS(C)(=O)=O)c1C (stereo unspecified)

>  <cytotoxicity at 70.5 h [%]>
18.6

$$$$
>  <compound>
O=C(c1cnccn1)N1CCN2C[C@H](OCc3ccccn3)C[C@H]2C1

>  <cytotoxicity at 70.5 h [%]>
-10.5

$$$$
>  <compound>
Cn1c(C(=O)NC(Cc2ccsc2)c2cccnc2)cc(=O)n(C)c1=O (stereo unspecified)

>  <cytotoxicity at 70.5 h [%]>
-0.464

$$$$
>  <compound>
CCc1cc(CNC(=O)N2CCN(c3nc(C)c(C)s3)CC2)on1

>  <cytotoxicity at 70.5 h [%]>
-3.25

$$$$
>  <compound>
CCN(CC)C(=O)CN(C)Cc1nc2c(cnn2C)c(=O)[nH]1

>  <cytotoxicity at 70.5 h [%]>
-10.6

$$$$
>  <compound>
Cc1cnc(C(=O)N2CCC3(CCN3Cc3ccc(F)cc3)C2)cn1 (stereo unspecified)

>  <cytotoxicity at 70.5 h [%]>
-0.513

$$$$
>  <compound>
OCCN(Cc1ccncc1)CC1(c2ccc(Cl)cc2)CC1

>  <cytotoxicity at 70.5 h [%]>
-4.99

$$$$
>  <compound>
Cc1ccc(C(=O)N2C[C@H]3CN(Cc4csc(C)n4)C[C@H]3C2)cn1

>  <cytotoxicity at 70.5 h [%]>
1.63

$$$$
>  <compound>
CCCn1ncc(CN2C[C@@H]3CCCN3C[C@H]2CCSC)c1C

>  <cytotoxicity at 70.5 h [%]>
-1.67

$$$$
>  <compound>
Cc1ncn(-c2cc(N3CCN(S(C)(=O)=O)CC3)ncn2)c1C

>  <cytotoxicity at 70.5 h [%]>
-4.92

$$$$
>  <compound>
CSc1ccc(NCC(=O)NCC(=O)N2CCCC2)cc1F

>  <cytotoxicity at 70.5 h [%]>
-2.3

$$$$
>  <compound>
CN(C)c1ccc(-c2cccc(-c3ccn(CCCO)n3)c2)nn1

>  <cytotoxicity at 70.5 h [%]>
-3.34

$$$$
>  <compound>
CCn1cnnc1CNC(=O)N1CCN(c2ccccc2OC)CC1

>  <cytotoxicity at 70.5 h [%]>
-9.83

$$$$
>  <compound>
CC(=O)N1CC[C@H]2OCC[C@@]2(C(=O)NCc2cnc(C)cn2)C1

>  <cytotoxicity at 70.5 h [%]>
-5.25

$$$$
>  <compound>
Cc1cc(C(F)(F)F)nn1C(C)C(=O)NN1CCN(C)CC1 (stereo unspecified)

>  <cytotoxicity at 70.5 h [%]>
18.4

$$$$
>  <compound>
Cc1nnsc1C(=O)NCc1nn(C2CCCC2)c2c1CCCC2

>  <cytotoxicity at 70.5 h [%]>
-5.38

$$$$
>  <compound>
NC(=O)N1CC[C@@H]2O[C@H](COCC(=O)N3CCCC3)CC[C@@H]21

>  <cytotoxicity at 70.5 h [%]>
-0.223

$$$$
>  <compound>
CCCOc1ccc2c(c1)OCC(C(=O)NC(C)Cn1cccn1)=C2 (stereo unspecified)

>  <cytotoxicity at 70.5 h [%]>
1.23

$$$$
>  <compound>
Cc1cccc2sc(NC(=O)CN3CCC(C)CC3)nc12

>  <cytotoxicity at 70.5 h [%]>
-7.07

$$$$
>  <compound>
COc1cc(C(=O)NS(=O)(=O)c2cccc(C#N)c2)cc(Cl)c1OC

>  <cytotoxicity at 70.5 h [%]>
-8.04

$$$$
>  <compound>
O=S(=O)(NC1CCCOC1)c1ccc(C(F)(F)F)nc1 (stereo unspecified)

>  <cytotoxicity at 70.5 h [%]>
-1.78

$$$$
>  <compound>
COc1ccc(CNC2CCN(CCc3ccncc3)CC2)cc1O

>  <cytotoxicity at 70.5 h [%]>
-6.38

$$$$
>  <compound>
CCC(NC(=O)C1CCN(S(=O)(=O)N(C)C)CC1)c1ccc(C)c(C)c1 (stereo unspecified)

>  <cytotoxicity at 70.5 h [%]>
-5.81

$$$$
